outcomeMeasure: melting point

Before answering, review these 2 worked examples.
> print(dat)
                                   compound  endpointresult
1  Cn1c(-c2cnn(-c3c(Cl)cc(C(F)(F)F)cc3Cl)n2)nc(C#N)c1C#N   154 to 156 °C
2  COc1ccc(-c2nc(CNc3ccccc3)nc3cc(OC)c(OC)cc23)cc1OC   199 to 200 °C

State the recorded melting point for this entry: CN(CC1COc2ccccc2O1)S(N)(=O)=O (stereo not given) 97 to 98 °C

State the recorded melting point for this entry: O=S(=O)(NC1CC1)c1cccc(-c2cc(-c3nc(-c4ccc(C(F)(F)F)cc4)cc(C(F)(F)F)n3)ccn2)c1 196 °C

State the recorded melting point for this entry: N#Cc1ccc(-c2ccccc2OCC2CC2)[nH]c1=O 250 to 252 °C

====

Overview of reported melting point across a group of molecules:

> print(dat)
                                   molecule  endpointresult
1  Cc1cc(O)c(S(=O)(=O)Cc2ccc(Cl)c(Cl)c2)c(=O)o1   144 to 145 °C
2  CSc1cc(C)nc(SC)c1NC(=O)CCCCSc1nc2ccccc2o1   147 to 150 °C
3              CC(=O)N(C)CCc1ccc(C(=O)O)cc1   149 to 151 °C
4  O=C(c1cccc(-c2cc3ccccc3[nH]2)c1)c1cc2ccccc2[nH]1   206 to 207 °C

State the recorded melting point for this entry: COc1cc(C(=O)O)ccc1OCc1nc(-c2ccccc2)oc1C 219 to 220 °C

State the recorded melting point for this entry: CCC(Oc1ccc(C(C)(C)CC)cc1C(C)(C)CC)C(=O)Nc1cccc(C(=O)NC2=NN(c3c(Cl)cc(Cl)cc3Cl)C(=O)C2N2CCCCC2)c1 (centres undefined) 186 to 190 °C

====

outcomeMeasure: melting point

> print(dat)
                                   molecule  endpointresult
1             COc1ccccc1C(=O)c1cccc2c1ccn2C           74 °C
2  CC(Oc1ccc(Oc2ncc(Cl)cc2N)cc1)C(=O)O (stereo unspecified)   152 to 154 °C
3  O=C1CCC(N2Cc3c(OCC4COc5ccccc5C4)cccc3C2=O)C(=O)N1 (stereo unspecified)   258 to 260 °C
4            CCCCCN1C(=O)C(=O)c2c(OC)cccc21     80 to 82 °C
5  CN(C)c1ccc(S(=O)(=O)n2c(CCCC(=O)O)cc3nc(Cl)ccc32)cc1           76 °C

State the recorded melting point for this entry: CCCOc1ccc(CNc2cc(C(=O)Nc3ccccc3)ccc2OC)cc1 154 to 156 °C

====

Overview of reported melting point across a group of molecules:

> print(dat)
                                   molecule  endpointresult
1  O=C(Nc1nc(-c2ccco2)c(-c2ccncc2)s1)c1cc[nH]c(=O)c1   277 to 281 °C
2  Cc1cc([C@@H](O)[C@@H](C)N2CCC(O)(c3ccc(F)cc3)CC2)ccc1O[Si](C(C)C)(C(C)C)C(C)C (relative stereo)   188 to 189 °C
3  NC(=O)c1c(Cl)c(-c2ccccc2)n2c1CN(S(=O)(=O)c1ccc(Cl)c(Cl)c1)CC2   192 to 193 °C
4  CCOC(=O)COc1ccc(NC(=O)OC(C)(C)C)cc1C(F)(F)F   104 to 105 °C
5               CC(C)(C)C#CC(=O)C#CC(C)(C)C   62 to 63.5 °C

State the recorded melting point for this entry: CC(=O)NCCn1cccc1C1=CC(=O)c2ncccc2C1=O 164 to 165 °C

State the recorded melting point for this entry: CCCC(=NOCC)C1=C(O)CC(c2cc(C3CCOC3)no2)CC1=O (stereo not given) 85 °C

State the recorded melting point for this entry: Cc1ccc(S(=O)(=O)N(F)C(C)(C)C)cc1 59 to 62.5 °C

====

Overview of reported melting point across a group of compounds:

> print(dat)
                                   compound  outcomemeasure  endpointresult
1  CCOC(=O)C(=C(C)N)c1nc(N)c([N+](=O)[O-])nc1Cl   melting point   162 to 163 °C
2  CSc1nc(C)nc2c1-c1ccc(Cl)cc1C(c1ccccc1)=NC2   melting point   181 to 183 °C
3  COc1ccccc1N1CCN(CC(O)COc2ccccc2-c2ccnc(N)n2)CC1 (stereo not given)   melting point   147 to 149 °C
4  CCCCCn1ncc2c(N)c3c(nc21)CN(Cc1cccc(C(F)(F)F)c1)C3=O   melting point   146 to 148 °C

State the recorded melting point for this entry: Cc1cccc(NCC2=NCCN2C(=O)Nc2ccc(Cl)cc2)c1C 153 to 155 °C

====

outcomeMeasure: melting point

Before answering, review these 5 worked examples.
> print(dat)
                                   molecule  outcomemeasure  endpointresult
1  O=C(O)c1ccc(C(=O)/C=C/c2ccc(-c3cccs3)cc2F)cc1   melting point        > 260 °C
2  CCOP(=O)(OCC)c1nc(N2CCCCC2)nc(N2CCCCC2)n1   melting point   103 to 105 °C
3  CN1CCN(C(=O)c2ccc(-c3cnc4c(c3)N(Cc3ccccc3)CCN4)cc2)CC1   melting point   180 to 181 °C
4  COc1ccc(CNc2nc(COCC(=O)O)nc3sc4c(c23)CCCC4)cc1Cl   melting point   136 to 137 °C
5  COC(=O)C1=CC(C(=O)c2cc(Br)cc(Br)c2O)=CN2CCc3c([nH]c4ccccc34)C12C(=O)OC (stereo not given)   melting point          131 °C

Continue with the next molecule.
State the recorded melting point for this entry: CCOc1cc(-c2cc(C(F)F)n3ncc(-c4nc(-c5ccc(N)nc5)no4)c3n2)ccc1C(F)(F)F 250 °C

====

outcomeMeasure: melting point

Before answering, review these 6 worked examples.
> print(dat)
                                   compound  outcomemeasure  endpointresult
1  CCc1cc(CC)c(-c2c(O)c(C)nn(C)c2=O)c(CC)c1I   melting point   217 to 219 °C
2  CC1CC(=O)C1(Cl)CC(Cl)(Cl)Cl (stereo unspecified)   melting point     80 to 81 °C
3   O=[N+]([O-])c1cc(Cn2ccnc2)ccc1NC1CCCCC1   melting point          121 °C
4  COC(=O)C1=C(N)C(C)SC1 (stereo unspecified)   melting point           60 °C
5  Cn1cc(-c2cc3cccnc3[nH]2)c2cc(C(=O)NCCO)ccc21   melting point   256 to 257 °C
6  COc1ccc2c(c1)C1(CCNC1)CC2O (stereo unspecified)   melting point   135 to 138 °C

State the recorded melting point for this entry: C=CCOCc1[nH]c(=O)c(CC(C)C)[n+]([O-])c1N 149 to 151 °C

State the recorded melting point for this entry: CN(c1cccc2cc(C3=NCC(CC(=O)N4CCS(=O)CC4)S3)[nH]c12)S(=O)(=O)c1cccs1 (stereo unspecified) 149 °C

State the recorded melting point for this entry: O=Cc1cccc(-c2ccco2)n1 46 to 48 °C

State the recorded melting point for this entry: CCC(CC)N(O)C(=O)Nc1cccc(Oc2ccccc2)c1 111 °C

State the recorded melting point for this entry: C=CCC(Cc1ccc([N+](=O)[O-])cc1)NC(=O)OCc1ccccc1 (stereo unspecified) 94 to 95 °C

====

outcomeMeasure: melting point

> print(dat)
                                   compound  outcomemeasure  endpointresult
1                 CCOC(=O)N1CCC(C(=O)Cl)CC1   melting point     96 to 98 °C
2  CS(=O)(=O)N(Cc1cccnc1)c1cccc([N+](=O)[O-])c1   melting point   131 to 133 °C
3  COC(=O)CC(CSc1nc2ccccc2s1)C(=O)OC (centres undefined)   melting point     46 to 47 °C
4  CONC(=N)c1ccc(-c2ccc(-c3ccc(-c4ccc(C(=N)NOC)cc4)o3)o2)cc1   melting point   258 to 259 °C
5  CCOC(=O)c1c(CC(=O)O)n(-c2ccc(OC(C)C)cc2)c2ccc(Oc3ncccc3C(N)=O)cc12   melting point   210 to 212 °C

State the recorded melting point for this entry: Cc1cc(C=NNC(N)=S)ncc1[N+](=O)[O-] 220 to 222 °C

State the recorded melting point for this entry: COc1cc(C(=O)O)ccc1CNC(=O)C1Cc2ccccc2N1S(=O)(=O)c1ccc(-c2cccc(C(F)(F)F)c2)cc1 (centres undefined) 108 to 120 °C

State the recorded melting point for this entry: N#CN=C(Nc1cncc(N)c1)NC1(c2ccccc2)CCC1 213 to 214 °C

State the recorded melting point for this entry: OCc1cccc(-c2cccc(F)c2)c1-c1cccc(F)c1 114 to 116 °C
